Where do the numbers come from? From ChEMBL document CHEMBL2321828.

target: Protein-arginine deiminase type-4 (Homo sapiens); experiment: Ratio of Kinact to Ki for human PAD4 using BAEE as substrate after 30 mins
Attribute measured: Ratio (M⁻¹ min⁻¹)
Answer format: numeric, M⁻¹ min⁻¹ implied, no suffix.

Some molecules with recorded Ratio:
Structure smiles: N=C(N)CCl
System name: Protein-arginine deiminase type-4 (Homo sapiens)
Experimental result: 60
//
Structure smiles: COC(=O)[C@H](CCNC(=N)CCl)NC(C)=O
System name: Protein-arginine deiminase type-4 (Homo sapiens)
Experimental result: 183
//
Structure smiles: COC(=O)[C@H](CCCCNC(=N)CCl)NC(C)=O
System name: Protein-arginine deiminase type-4 (Homo sapiens)
Experimental result: 50

**Query** Item COC(=O)[C@H](CCCNC(=N)CCl)NC(C)=O with Protein-arginine deiminase type-4 (Homo sapiens) - Ratio?
**Result** 865

* * *

Documented Ratio across a set of molecules
target: Protein-arginine deiminase type-1 (Homo sapiens); experiment: Ratio of Kinact to Ki for human PAD1 using BAEE as substrate after 30 mins
Answer format: numeric, M⁻¹ min⁻¹ implied, no suffix.

Structure smiles: COC(=O)[C@H](CCNC(=N)CCl)NC(C)=O
System name: Protein-arginine deiminase type-1 (Homo sapiens)
Experimental result: 111

Structure smiles: COC(=O)[C@H](CCCNC(=N)CCl)NC(C)=O
System name: Protein-arginine deiminase type-1 (Homo sapiens)
Experimental result: 497

Structure smiles: N=C(N)CCl
System name: Protein-arginine deiminase type-1 (Homo sapiens)
Experimental result: 32

**Query** Item COC(=O)[C@H](CCCCNC(=N)CCl)NC(C)=O with Protein-arginine deiminase type-1 (Homo sapiens) - Ratio?
**Result** 62

* * *

biological target: UniProtKB Q08642; assay: Ratio of Kinact to Ki for mouse PAD2 using BAEE as substrate after 30 mins
Sequence (Q08642 whole entry): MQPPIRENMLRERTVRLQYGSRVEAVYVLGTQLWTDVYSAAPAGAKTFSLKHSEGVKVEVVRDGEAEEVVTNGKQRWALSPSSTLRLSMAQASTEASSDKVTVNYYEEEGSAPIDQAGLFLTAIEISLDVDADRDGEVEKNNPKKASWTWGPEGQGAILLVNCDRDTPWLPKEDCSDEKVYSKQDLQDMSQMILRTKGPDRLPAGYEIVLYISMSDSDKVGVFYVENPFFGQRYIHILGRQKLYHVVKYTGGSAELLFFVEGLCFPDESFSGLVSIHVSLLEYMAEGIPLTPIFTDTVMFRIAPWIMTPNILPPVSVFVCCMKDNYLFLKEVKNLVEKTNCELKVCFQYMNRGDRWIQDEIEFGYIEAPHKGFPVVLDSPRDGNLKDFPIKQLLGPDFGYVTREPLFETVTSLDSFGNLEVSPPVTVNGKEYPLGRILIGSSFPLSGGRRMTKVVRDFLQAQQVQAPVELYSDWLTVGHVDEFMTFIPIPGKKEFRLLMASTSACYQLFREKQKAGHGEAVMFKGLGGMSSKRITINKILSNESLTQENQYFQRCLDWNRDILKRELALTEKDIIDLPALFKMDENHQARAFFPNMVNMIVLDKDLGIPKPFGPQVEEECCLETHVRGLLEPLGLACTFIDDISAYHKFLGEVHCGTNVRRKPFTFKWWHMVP
Attribute measured: Ratio (M⁻¹ min⁻¹)
Answer format: numeric, M⁻¹ min⁻¹ implied, no suffix.

Some molecules with recorded Ratio:
Structure smiles: COC(=O)[C@H](CCCNC(=N)CCl)NC(C)=O
Ratio, M⁻¹ min⁻¹: 167
//
Structure smiles: COC(=O)[C@H](CCNC(=N)CCl)NC(C)=O
Ratio, M⁻¹ min⁻¹: 50
//
Structure smiles: COC(=O)[C@H](CCCCNC(=N)CCl)NC(C)=O
Ratio, M⁻¹ min⁻¹: 120

**Query** Quick check: Ratio of N=C(N)CCl ?
**Result** 9
